test system: glycogen synthase kinase-3 (GSK3A per assay name; protocol says GSK3B); assay: GSK3 binders on small-molecule microarrays, primary screen, biochemical, small-molecule microarray, 635 nm fluorescence, GSK3A (AID 1103); conditions: small-molecule microarray binding, fluorescence 635 nm; higher = more signal; further: the record names both GSK3A and GSK3B
result-type: composite z-score

INSERT INTO measurements (compound, result_type, recorded_result) VALUES
  ('O=C1C[C@@](C(=O)NCCN2CCOCC2)(c2ccc([N+](=O)[O-])cc2)[C@@H](c2ccc(CO)cc2)N1C1CCCCC1', 'composite z-score', 1.02),
  ('COC(=O)C1=C(C)N(Cc2ccccc2)c2c(C(=O)OC)c(C(=O)OC)c(C(=O)OC)c(=O)n2[C@@H]1c1ccccc1', 'composite z-score', 0.37),
  ('CCCC/C=C/[C@H]([C@@H](O)Cc1ccccc1)N(CC#Cc1ccccc1)Cc1ccccc1Br', 'composite z-score', -0.749),
  ('C[C@]1(C(=O)NCCN2CCOCC2)c2ccccc2C(=O)N(Cc2ccccc2)[C@H]1c1ccc(CO)cc1', 'composite z-score', -0.748),
  ('C=CCN(C(=O)C1N(c2ccc(CCO)cc2)C(=O)C2C(C(=O)O)C3C=CC21O3)C(C)(C)C (centres undefined)', 'composite z-score', -0.723),
  ('C=C(CCCC)C(=O)CC[C@@H](OC(C)=O)c1ccccc1OCCO', 'composite z-score', -1.31),
  ('COc1ccc([Si](C)(C)[C@H]2[C@H](CC(=O)N(CCO)Cc3ccccc3)O[C@@]3(C(=O)N(C)c4ccccc43)[C@@H]2C)cc1', 'composite z-score', 0.25),
  ('O=C1C[C@@](C(=O)NC2CC2)(c2ccc([N+](=O)[O-])cc2)[C@@H](c2ccc(CO)cc2I)N1CC12CC3CC(CC(C3)C1)C2', 'composite z-score', 0.968),
  ('C[N+](C)(C)CCCCNC(=O)[C@H]1C[C@H]2C(=O)NCC(=O)N2[C@H]1c1cccc(OCCO)c1', 'composite z-score', 1.29),
  ('CCC(=O)[C@]12O[C@@]3([C@@H]4C(=O)OCC[C@@H]41)N(CC)C(C)=C(C(=O)OC)[C@@H](c1ccccc1)N3C2=O', 'composite z-score', 0.0495),
  ('COc1cc(CO)cc(I)c1O[C@H]1C=C(C(=O)NCCO)C[C@@H](N(CC2CCCCC2)C(=O)c2cc3ccccc3oc2=O)[C@@H]1O', 'composite z-score', 0.0996),
  ('COc1cc2c(cc1OC)CN(C(=O)[C@H]1[C@@H]3C(=O)O[C@@H](c4ccccc4)[C@@H](c4ccccc4)N3[C@@H](c3ccccc3OCCO)[C@]13C(=O)Nc1ccc(C#CC4(O)CCCCCC4)cc13)CC2', 'composite z-score', 1.3),
  ('COc1ccc(-c2ccccc2[C@@H]2N[C@H](C(=O)O)CC[C@H]2C)cc1', 'composite z-score', 0.387),
  ('CCCC[C@@H]1C[C@H]1[C@@H](NC(=O)c1cccs1)c1ccc(Cl)cc1', 'composite z-score', -1.13),
  ('C=CCOC(=O)[C@@H]1[C@H]2C(=O)O[C@H](c3ccccc3)[C@H](c3ccccc3)N2[C@H](c2ccc(OCCOC(=O)[C@H]3C[C@H]4C(=O)N[C@@H](CCCCNC(C)=O)C(=O)N4[C@H]3c3ccc(O)cc3)cc2)[C@@]12C(=O)Nc1ccc(I)cc12', 'composite z-score', 1.28),
  ('O=C1c2ccccc2[C@@]2(Cc3ccccc3N(CC(F)(F)F)C2=O)[C@H](c2ccc(CO)cc2)N1C1CCCCC1', 'composite z-score', 0.88),
  ('C=CCC(OC(C)=O)[C@@H]1[C@@H](N(Cc2cccc3ccccc23)C(=O)Cc2ccc(F)cc2)c2cc(OCCCO)ccc2N1C(=O)Cc1ccc2ccccc2c1 (some centres undefined)', 'composite z-score', -0.236),
  ('C[N+](C)(C)CCCCNC(=O)[C@@H]1C[C@@H]2C(=O)N3CCC[C@H]3C(=O)N2[C@@H]1c1cccc(OCCO)c1', 'composite z-score', 0.249),
  ('CCCC=C(CCC)[C@@H](NS(=O)(=O)c1ccc(-c2ccccc2)cc1)c1ccc(C(=O)OC)cc1', 'composite z-score', -0.84),
  ('O=C1c2ccccc2[C@](Cc2ccccc2I)(C(=O)NCc2ccccc2)[C@H](c2ccc(CO)cc2)N1Cc1ccccc1C(F)(F)F', 'composite z-score', -1.42),
  ('C=CC[C@]1(C(=O)OC)N=C(c2ccc(OCCCO)cc2)O[C@H]1c1ccccc1CN=[N+]=[N-]', 'composite z-score', -0.52),
  ('COc1ccc(-c2cc3c(c(-c4ccccc4)n2)[Si](C(C)C)(C(C)C)O[C@H]3c2ccccc2)cn1', 'composite z-score', 0.176),
  ('O=C(NCc1ccccc1)[C@@]1(Cc2ccccc2)COC(c2ccc(OCCCO)cc2)=N1', 'composite z-score', 0.0562),
  ('COc1ccc(C(=O)Nc2ccc(CN3C(=O)[C@]4(O[C@H](CCn5cc(CCO)nn5)[C@@H]([Si](C)(C)c5ccc(OC)cc5)[C@@H]4C)c4ccccc43)cc2)cc1', 'composite z-score', 1.03),
  ('Cc1ccc(S[C@]2(C(=O)NCCCN(C)C)CC(=O)N(Cc3ccccc3)[C@@H]2c2ccc(CO)cc2I)cc1', 'composite z-score', -0.753),
  ('CCCN1C(=O)[C@@]2(CCS(=O)(=O)c3ccccc3)N=C(c3ccc(OCCCO)cc3)O[C@H]2c2ccccc21', 'composite z-score', 1.31),
  ('CC1=C([C@H](O)CCc2ccccc2)[C@H](CO)[C@@H]2C(=O)N(Cc3ccccc3)C(=O)[C@@H]2C1', 'composite z-score', -0.453),
  ('CCOC(=O)C[C@H]1[C@H](OC(=O)c2cc3ccccc3oc2=O)[C@@H](NC(=O)C2CCCCC2)c2cc(OCCCO)ccc2N1C(=O)c1ccc2ccccc2n1', 'composite z-score', 0.413),
  ('C=CC[C@@]1(C(=O)NCC(O)CO)N=C(c2ccc(OCCCO)cc2)O[C@@H]1c1ccccc1CN=[N+]=[N-] (some centres undefined)', 'composite z-score', -1.33);
